Recorded values, source PubChem BioAssay (EPA / NIEHS).

Test: CCTE_Shafer_MEA_dev_firing_rate_mean: CCTE's Neural Network Formation Assay for Mean Firing Rate, Shafer Lab (AID 2284031);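 also: AUC of well mean spike rate recorded on DIV 5 7 9 and 12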
Protocol: CCTE_Shafer_MEA_dev assay is conducted using Axion Biosystems 48 well microelectrode array (MEA) plates and Maestro recording system. Each well of the MEA plate contains a grid of 16 microelectrodes embedded in the culture surface. Electrically active cells, such as neurons, can be cultured over the electrodes, and electrical activity in these cells can be recorded extracellularly. […]
Activity calls are given as the source filed them. The calls were made as follows: active = hit-call score of the fitted dose curve at least 0.9, where 1 is the maximum; inactive = score below 0.9.
The reply should be one of these categories: active, inactive

Example cases with answers are listed next.
>  <molecule>
CP(=O)(O)CC[C@H](N)C(=O)O

>  <assigned_label>
inactive

$$$$
>  <molecule>
CCC1(c2ccccc2)C(=O)NC(=O)NC1=O

>  <assigned_label>
inactive

$$$$
>  <molecule>
c1ccc2c(c1)cc1ccc3cccc4ccc2c1c34

>  <assigned_label>
inactive

$$$$
>  <molecule>
Cc1ccc(OP(=O)(Oc2ccc(C)cc2)Oc2ccc(C)cc2)cc1 (tested in a mixture with another compound)

>  <assigned_label>
inactive

$$$$
>  <molecule>
C[n+]1ccc(-c2cc[n+](C)cc2)cc1

>  <assigned_label>
active

$$$$

Dear all, I need the recorded test outcome for CCOP(=O)(Oc1cnc(C(C)(C)C)nc1)OC(C)C (configuration not stated) , thank you.
inactive

Assay result, entry `[CH3][Hg][Cl]` — outcome?
active

---

assay: ATG_CMV_CIS: Attagene CIS-FACTORIAL HepG2 Assay for human CMV (Internal Marker) (AID 2282928); details: HepG2 CMV promoter reporter, transcription factor profiling; actives raise or lower the signal;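 also: endpoint acts as a background internal control marker rather than a target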
Calls of active or inactive are those of the source. Rule for the calls: active = hit-call score of the fitted dose curve at least 0.9, where 1 is the maximum; inactive = score below 0.9.
I would appreciate it if you answered using one of these outcomes: 1.0 (active), 0.0 (inactive)

Check the results log: what was the call for c1cc(OCC2CO2)ccc1Cc1ccc(OCC2CO2)cc1 (stereo unspecified) ?
1.0

---

read-out: Macrophage colony-stimulating factor (MCSF), CSF1 (gene 1435); experiment: BSK_CASM3C_MCSF: BioMAP Diversity Plus: CASM3C Assay for Macrophage colony-stimulating factor (MCSF) Biomarker Activity (AID 2283044); conditions: primary human coronary artery smooth muscle cells; actives raise or lower the signal;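 also: M-CSF protein amount quantified by ELISA after 24 h exposure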
Activity calls are given as the source filed them. How the source made its calls: active means hit-call score of the fitted dose curve at least 0.9, where 1 is the maximum; inactive means score below 0.9.
observable: AC50

Some entries whose results are on file:
>  <smi>
N#CCCCCC#N

>  <AC50>
inactive

$$$$
>  <smi>
O=c1c2ccccc2c(=O)c2c1cc(Cl)c1[nH]c3c([nH]c12)c(Cl)cc1c(=O)c2ccccc2c(=O)c13

>  <AC50>
inactive

$$$$
>  <smi>
CNC(=O)Oc1cc(C)c(SC)c(C)c1

>  <AC50>
13.3 µM (active)

$$$$
>  <smi>
CC(=O)/C=C/c1ccccc1

>  <AC50>
inactive

$$$$
>  <smi>
c1ccc(Nc2ccc3ccccc3c2)cc1

>  <AC50>
20 µM (active)

$$$$

// next item, AC50 requested
So, `C=CCN(CC=C)C(=O)C(Cl)Cl` ? Its AC50 was inactive

---

Assay: ATG_EGR_CIS: Attagene CIS-FACTORIAL HepG2 Assay for human Early Growth Response 1 (EGR1) (AID 2282938)
Conditions: HepG2 Attagene CIS-FACTORIAL EGR reporter mRNA; actives raise or lower the signal
Description: ATG_CIS is a cell-based, multiplexed-readout assay that uses HepG2, a human liver cell line, with measurements taken at 24 hours after chemical dosing in a 24-well plate.ATG_EGR_CIS is one of 52 assay component(s) measured or calculated from the ATG_CIS assay. […] This assay endpoint, ATG_EGR_CIS, was analyzed with bidirectional fitting relative to DMSO as the negative control and baseline of activity. […]
The source made the active and inactive calls. How the source made its calls: active means hit-call score of the fitted dose curve at least 0.9, where 1 is the maximum; inactive means score below 0.9.
Tick one outcome: active, inactive

The following compounds have reported results that may help.
>  <compound>
ClCC(Cl)Cl

>  <assigned_label>
inactive

$$$$
>  <compound>
Cc1ccc(N(SC(F)(Cl)Cl)S(=O)(=O)N(C)C)cc1

>  <assigned_label>
active

$$$$
>  <compound>
O=C(CCl)c1ccccc1

>  <assigned_label>
inactive

$$$$

Kindly provide the recorded test outcome for the following compound: `O=[N+]([O-])c1cc(C(F)(F)F)c(Cl)c([N+](=O)[O-])c1Cl`
active

Record request — test call for `CCC(=O)c1ccc(Cl)cc1`
inactive

Returns: the outcome recorded for `CCCCCc1cc(O)cc(O)c1` in this assay.
active

For this compound, state the assay outcome: `CC(C)(c1cc(Cl)c(O)c(Cl)c1)c1cc(Cl)c(O)c(Cl)c1`
active

---

experiment: ATG_MRE_CIS: Attagene CIS-FACTORIAL HepG2 Assay for human Metal Responsive Element (MRE) (AID 2282954); details: HepG2 MRE cis-reporter transcription, Attagene multiplex; actives raise or lower the signal
Active and inactive are the calls of the source. The calls were made as follows: active = hit-call score of the fitted dose curve at least 0.9, where 1 is the maximum; inactive = score below 0.9.
API: response.call in class 1 for active, class 0 for inactive

Dear colleague, could you share the recorded outcome for `C[C@]12CC[C@H]3[C@@H](CC[C@@]45O[C@@H]4C(O)=C(C#N)C[C@]35C)[C@@H]1CC[C@@H]2O` when you have a moment?
class 1

// param item: `O=P(O)(Oc1ccccc1)Oc1ccccc1` ; yields the recorded call
class 0

Lab log entry: `Cc1cc(C)c(C2=C(OC(=O)CC(C)(C)C)C3(CCCC3)OC2=O)c(C)c1` — outcome as called in the assay?
class 1

Dear all, I need the recorded test outcome for CCOC(=O)C1OC1(C)c1ccccc1 (stereo not drawn) , thank you.
class 0

So what was the verdict on `CC1(C)C(=O)NC(=O)NC1=O` in this test?
class 0

What did the test return for `C=CC(=O)OC` ?
class 0

// return assay outcome for `CC(C)COP(=O)(OCC(C)C)OCC(C)C`
class 0

# lookup: test call for O=P1(NCCCl)OCCCN1CCCl (stereo not drawn)
class 0

---

molecular target: Cellular tumor antigen p53 (Homo sapiens); assay: TOX21_p53_BLA_p4_ratio: Tox21 HCT-116 p53 Agonism Beta-lactamase Assay, Ratio, Phase 4 (AID 2283601)
Inconclusive results are not listed. Activity calls are given as the source filed them. How the source made its calls: active means hit-call score of the fitted dose curve at least 0.9, where 1 is the maximum; inconclusive means response in the unintended direction; inactive means score below 0.9.
Your response should consist of one outcome taken from active, inactive

>  <compound>
CC(C)CCON=O

>  <target_under_test>
Cellular tumor antigen p53 (Homo sapiens)

>  <assigned_label>
inactive

$$$$

State the result this test recorded for `Nc1ccccc1C(=O)OCC=Cc1ccccc1` .
inactive

# outcome recorded in this test, key = `Clc1ccc2ccccc2c1`
inactive

---

assay: ATG_NFI_CIS: Attagene CIS-FACTORIAL HepG2 Assay for human Nuclear Factor I (NFI) (AID 2282989); conditions: HepG2 cis-regulatory reporter, NFI response element transcription; actives raise or lower the signal
The source made the active and inactive calls. How the source made its calls: active means hit-call score of the fitted dose curve at least 0.9, where 1 is the maximum; inactive means score below 0.9.
The reply should name one outcome from active, inactive

>  <smi>
N#CCCCl

>  <assigned_label>
inactive

$$$$
>  <smi>
Nc1ccccc1C(=O)Oc1ccc2ccccc2c1

>  <assigned_label>
active

$$$$
>  <smi>
Cc1cc(C)c(C2=C(OC(=O)CC(C)(C)C)C3(CCCC3)OC2=O)c(C)c1

>  <assigned_label>
active

$$$$

Consider now this further compound.
Outcome? `N#Cc1cc(I)c(O)c(I)c1`
inactive

---

assay: TOX21_p53_BLA_p5_viability: Viability Assessment in the Tox21 HCT-116 p53 Agonism Beta-lactamase Assay, Phase 5 (AID 2283600)
Results filed as inconclusive are left out. Calls of active or inactive are those of the source. The calls were made as follows: active = hit-call score of the fitted dose curve at least 0.9, where 1 is the maximum; inconclusive = response in the unintended direction; inactive = score below 0.9.
Result category, one only: YES for active, NO for inactive

Use the examples below as a reference point.
>  <compound>
N#CC(C#N)=Cc1cc(O)c(O)c(O)c1

>  <assigned_label>
NO

$$$$
>  <compound>
C=CC=O

>  <assigned_label>
NO

$$$$
>  <compound>
CCCCNCC(O)c1ccc(O)cc1 (centres undefined)

>  <assigned_label>
NO

$$$$

Query: recorded result category for `COC(=O)C(Cl)C(=O)OC` in this test
NO

What was the test verdict on CC1N=C(N)OC1c1ccccc1 (centres undefined) ?
NO

Each compound tested received a call. Report the one for `CN1CCN=C(c2ccccc2)c2cc(Cl)ccc21` .
YES

Hi, do you know how `C[C@]1(O)CC[C@H]2[C@@H]3CCC4=CC(=O)CC[C@]4(C)[C@@]3(F)[C@@H](O)C[C@@]21C` came out in this test?
NO

---

biological target: human Caspase 2 (CASP2), CASP2 (gene 835); assay: NVS_ENZ_hCASP2: NovaScreen (NVS) Enzymatic Assay for human Caspase 2 (CASP2) (AID 2283135)
Inconclusive results are not listed. Calls of active or inactive are those of the source. Rule for the calls: active = hit-call score of the fitted dose curve at least 0.9, where 1 is the maximum; inconclusive = response in the unintended direction; inactive = score below 0.9.
Result category, one only: active, inactive

A selection of reference data follows.
>  <smi>
O=C1c2c(O)cccc2Cc2cccc(O)c21

>  <target_under_test>
human Caspase 2 (CASP2), CASP2 (gene 835)

>  <assigned_label>
active

$$$$
>  <smi>
S=C([S-])NCCNC(=S)[S-].[Mn+2]

>  <target_under_test>
human Caspase 2 (CASP2), CASP2 (gene 835)

>  <assigned_label>
inactive

$$$$
>  <smi>
CC(C)(O)c1coc(S(=O)(=O)NC(=O)Nc2c3c(cc4c2CCC4)CCC3)c1

>  <target_under_test>
human Caspase 2 (CASP2), CASP2 (gene 835)

>  <assigned_label>
inactive

$$$$
>  <smi>
Cc1cccc([N+](=O)[O-])c1C

>  <target_under_test>
human Caspase 2 (CASP2), CASP2 (gene 835)

>  <assigned_label>
inactive

$$$$
>  <smi>
O=C(O)c1[nH]n(-c2ccc(S(=O)(=O)O)cc2)c(=O)c1N=Nc1ccc(S(=O)(=O)O)cc1

>  <target_under_test>
human Caspase 2 (CASP2), CASP2 (gene 835)

>  <assigned_label>
inactive

$$$$

Any idea what this test logged for `O=C(NO)C1(NS(=O)(=O)c2ccc(Oc3ccc(F)cc3)cc2)CCOCC1` ?
inactive

Check the results log: what was the call for `Cc1cccc2ccccc12` ?
inactive

Please state the recorded outcome for this compound: `Cc1ccc(C(C)(C)C)c(O)c1`
inactive

What was the test verdict on `O=C(OC[C@H]1O[C@@H](OC(=O)c2cc(O)c(O)c(OC(=O)c3cc(O)c(O)c(O)c3)c2)[C@H](OC(=O)c2cc(O)c(O)c(OC(=O)c3cc(O)c(O)c(O)c3)c2)[C@@H](OC(=O)c2cc(O)c(O)c(OC(=O)c3cc(O)c(O)c(O)c3)c2)[C@@H]1OC(=O)c1cc(O)c(O)c(OC(=O)c2cc(O)c(O)c(O)c2)c1)c1cc(O)c(O)c(OC(=O)c2cc(O)c(O)c(O)c2)c1` ?
active

Any idea what this test logged for `CCCCCCOC(=O)CC(CC(=O)OCCCCCC)(OC(=O)CCC)C(=O)OCCCCCC` ?
inactive

Record lookup: outcome of this test for `Cc1nc(C)nc(N2C[C@@H](C)N(c3ccnc([C@@H](C)O)n3)[C@@H](C)C2)n1` ?
inactive
